Test: basal RPMI8226 mitochondrial membrane potential changes, profiling panel, cell-based, JC-1 fluorescence, 24 h, 100 nL compound (AID 1169); further: test concentration not given here
Conditions: RPMI8226 myeloma, JC-1 mitochondrial potential fluorescence, higher = more signal
Each record here notes measured z-score.
I only need the number, thanks.

Solved entries (count: 3):
# COMPOUND, z-score
records = [
    ("C[C@@H](ON=C1[C@H]2CCn3c(=O)n(-c4ccccc4)c(=O)n3[C@H]2[C@H](O)[C@@H]2O[C@H]12)c1cn([C@@H]2COC[C@H]2O)nn1", -0.0731),
    ("CSCC[C@@H]1NC(=O)CC=C[C@@H](C)COC(=O)[C@@H](C)COC1=O", -0.994),
    ("CCOC(=O)[C@H](Cc1ccccc1)NC(=O)CCC1CC(OC(=O)NCCc2ccc(F)cc2)CC2(CCCC(COC(=O)NCCc3ccccc3OC)O2)O1 (stereo not given in full)", 0.165),
]

Ask: Endpoint output: z-score of `CCN1C(=O)[C@@H]2[C@H]3C(=CC[C@@H]2C1=O)C1(OCCCO1)[C@H]1O[C@H]1[C@H]3O` . Value?
Result: -1.04

Ask: Repeat with `CCN1C(=O)[C@H]2[C@H]3[C@H](O)[C@H](O)CC(=O)[C@H]3CC[C@H]2C1=O`
Result: -0.0768

Ask: Repeat with `CON=Cc1ccc(C(=O)N2[C@H](c3ccc(C)cc3)[C@@H](C)CC[C@H]2C(=O)OC)cc1`
Result: 0.344

Ask: Repeat with `CCOC(=O)C1=NO[C@]2(C=C(Br)C3(OCCCO3)[C@H]3O[C@H]32)C1`
Result: 0.157

Ask: Repeat with Cc1ccc(S(=O)(=O)NC(CCc2ccccc2)CC(=O)C(C)(C)C)cc1 (stereo not given)
Result: -0.201

Ask: Repeat with `Cc1ccc(S(=O)(=O)N[C@@H]2COC(=O)[C@@H](C)COC(=O)CC=C[C@H]2C)cc1`
Result: 0.62

---

Assay: small-molecule microarray binders of probe aEGFR, primary screen, biochemical, biotinylated probe, 635/667 nm fluorescence (AID 1097);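 further: probe is a biotinylated anti-EGFR antibody binding compounds printed on slides; score combines fluorescence near 667 nm and signal to noise of each spot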
Details: higher = more signal
MEASUREMENT TYPE: composite z-score
I only need the number, thanks.

Solved entries (count: 5):
# COMPOUND, EXPERIMENTAL VALUE
records = [
    ("Cc1cc2c(nc1C)CCCCN2CC(C)ON=C[C@@H](C)[C@H](OCc1ccccc1)C(C)C (some centres undefined)", -0.3),
    ("C[C@@H](ON=C1[C@H]2CCn3c(=O)n(-c4ccccc4)c(=O)n3[C@H]2[C@H](O)[C@@H]2O[C@H]12)c1cn([C@@H]2COC[C@H]2O)nn1", -0.0788),
    ("CC(C)C[C@H](NC(=O)CCC1CC(OC(=O)NCc2cccc3ccccc23)CC2(CCCC(COC(=O)NCc3ccccc3)O2)O1)C(=O)NCC(c1ccccc1)c1ccccc1 (some centres undefined)", -0.0333),
    ("C[C@@H](c1ccccc1)N1C(=O)[C@H]2[C@H]3[C@H](O)[C@H](O)CC(=O)[C@H]3CC[C@H]2C1=O", -0.108),
    ("CCOC(=O)[C@H](Cc1ccccc1)NC(=O)OC1CC(CCC2CC(CC)=NO2)OC2(CCCC(COC(=O)NCCC(C)C)O2)C1 (some centres undefined)", -0.0721),
]

Ask: Endpoint output: composite z-score of `CCOC(=O)NN=C1C[C@@H](O)[C@@H](O)[C@@H]2[C@@H]3C(=O)N(c4cccc(Oc5ccccc5)c4)C(=O)[C@@H]3CC[C@@H]12` . Value?
Result: -0.163

Ask: Repeat with O=C1CCCC=C1C(CCc1ccccc1)OC(=O)c1ccc(Br)cc1 (centres undefined)
Result: -0.12

Ask: Repeat with `CC(C)=CCCC(C)=CCON=C1C[C@@H](O)[C@@H](O)[C@@H]2[C@@H]3C(=O)N(C(C)(C)C)C(=O)[C@@H]3CC[C@H]12`
Result: -0.0466

Ask: Repeat with `COC(=O)[C@@H]1CC[C@H](C)[C@@H](c2ccc(C)cc2)N1C(=O)c1ccc(C=NOC[C@@H](C)[C@H](OCc2ccccc2)C(C)C)cc1`
Result: 0.102

Ask: Repeat with `CO[C@@H]1COC(=O)CC=C[C@@H](C)[C@@H]2C=C[C@H](O)[C@@H](COC(=O)CC=C[C@H]1C)O2`
Result: 0.0651

Ask: Repeat with `COc1cccc([C@H]2Oc3ccc(OC)cc3C(=NO[C@H](C)c3cn([C@H](CO)Cc4ccccc4)nn3)[C@@H]2O)c1`
Result: -0.188

Ask: Repeat with `CC(CCN1CCCc2nc(C)c(C)cc21)=NO[C@@H](C)c1cc(-c2c(C)cc(C)cc2C)no1`
Result: -0.0873

Ask: Repeat with COC(=O)[C@H](C)NC(=O)CCC1CC(OC(=O)NCc2ccc3c(c2)OCO3)CC2(CCCC(COC(=O)NCCc3ccccc3OC)O2)O1 (some centres undefined)
Result: -0.0798

Ask: Repeat with `COc1cccc([C@H]2Oc3ccc(OC)cc3C(=NOC[C@@H](O)[C@H]3O[C@@H]4OC(C)(C)O[C@@H]4[C@H]3O)[C@@H]2O)c1`
Result: 0.0746

Ask: Repeat with COC(=O)CC=C[C@@H](C)[C@@H](C=NOC(C)CN1CCCc2nc(C)c(C)cc21)OC (some centres undefined)
Result: 0.0009

Ask: Repeat with `COC(=O)CC=C[C@@H](C)[C@@H](C=NO[C@H](C)c1cn([C@H](CO)Cc2ccccc2)nn1)NS(=O)(=O)c1ccc(C)cc1`
Result: 0.168

Ask: Repeat with `CCO[C@H](c1cc(OC)cc([N+](=O)[O-])c1OC)[C@H](C)C=CCC(=O)OC`
Result: -0.123

Ask: Repeat with `O=C(NN=C1C[C@@H](O)[C@@H](O)[C@@H]2[C@@H]3C(=O)N(C[C@@H]4CCCO4)C(=O)[C@@H]3CC[C@H]12)OCc1ccccc1`
Result: -0.19

Ask: Repeat with CCOC(=O)[C@H](CC(C)C)NC(=O)CCC1CC(OC(=O)NCc2ccc3c(c2)OCO3)CC2(CCCC(COC(=O)NCCCN3CCCC3=O)O2)O1 (some centres undefined)
Result: -0.0271
